biological target: Glutamate NMDA receptor; assay: Functional NMDA receptor antagonism expressed as inhibition of NMDA/glycine induced increase in cytosolic calcium in cultured rat cerebellar granule cells
List of IC50 values.
experimentalEndpoint: IC50 (µM)

* C[C@@H](CN)C(c1cccc(F)c1)c1cccc(F)c1 | 0.075
* NCCC(c1cccc(F)c1)c1cccc(F)c1 | 0.063
* C[C@H](CN)C(c1cccc(F)c1)c1cccc(F)c1 | 0.384

###

molecular target: Glutamate NMDA receptor; assay: Potency towards NMDA receptor measured as inhibition of (+)-[3-3H]MK-801 binding from synaptic plasma membrane obtained from rat cortex
experimentalEndpoint: IC50 (nM)

- C[C@H](CN)C(c1cccc(F)c1)c1cccc(F)c1: 2000
- NCCC(c1cccc(F)c1)c1cccc(F)c1: 230
- C[C@@H](CN)C(c1cccc(F)c1)c1cccc(F)c1: 141
